biological target: NNMT (Homo sapiens, UniProt P40261); assay: NNMT assay (HILIC-MS/MS, formation of MNA); details: IC50 values (μM), Table 3, 1-carbon alkyl linkers; NA 200 μM, SAM 8.5 μM; maximum concentration tested 25 μM
Sequence (P40261 whole entry, species assumed): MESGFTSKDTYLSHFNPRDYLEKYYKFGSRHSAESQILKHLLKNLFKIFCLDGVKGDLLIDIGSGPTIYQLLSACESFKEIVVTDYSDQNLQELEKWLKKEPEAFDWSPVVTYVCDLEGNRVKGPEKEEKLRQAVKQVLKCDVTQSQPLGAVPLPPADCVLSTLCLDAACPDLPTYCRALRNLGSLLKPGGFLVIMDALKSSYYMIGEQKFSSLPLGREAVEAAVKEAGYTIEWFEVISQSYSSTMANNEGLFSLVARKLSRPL
REPORTED ENDPOINT: IC50 (µM)

Previously resolved entries follow.
INSERT INTO results (molecule, reported_endpoint, experimental_result) VALUES
  ('Nc1ncnc2c1ncn2[C@@H]1O[C@H](CN(CC[C@H](N)C(=O)O)Cc2ccc(S(=O)(=O)F)cc2)[C@@H](O)[C@H]1O [GYZ-760]', 'IC50', 5.62),
  ('Nc1ncnc2c1ncn2[C@@H]1O[C@H](CN(CC[C@H](N)C(=O)O)Cc2ccccc2C(F)(F)F)[C@@H](O)[C@H]1O [GYZ-415]', 'IC50', 9.7);

1: Nc1ncnc2c1ncn2[C@@H]1O[C@H](CN(CC[C@H](N)C(=O)O)Cc2cccc([N+](=O)[O-])c2)[C@@H](O)[C@H]1O [GYZ-419]
2: Nc1ncnc2c1ncn2[C@@H]1O[C@H](CN(CC[C@H](N)C(=O)O)Cc2ccc(C(F)(F)F)cc2)[C@@H](O)[C@H]1O [GYZ-414]
Please choose the item with the lower IC50 value from this pair: 1 and 2 Please reply using the label of the selected record.
1
(1: 0.32 µM, 2: 6.79 µM)
